Cited source: the supplement of paper PMC12592484

# Tested on: CAF#5 (primary prostate cancer-associated fibroblasts of myCAF-like type)
# test-name: drug sensitivity score (DSS2, normalised partial AUC of dose-response, 72 h CellTiter-Glo viability) (DSS (dimensionless)); higher = more sensitive (stronger growth inhibition / cytotoxicity); extreme values may be limits of the assay
attribute-measured: drug sensitivity score
Please reply with the value in numeric form only.

// worked examples, drug sensitivity score included
molecule: C=CCn1c(=O)c2cnc(Nc3ccc(N4CCN(C)CC4)cc3)nc2n1-c1cccc(C(C)(C)O)n1 [Adavosertib] (tested concentration range 1-10000 nM)
drug sensitivity score: 5.9
//
molecule: C#Cc1cccc(Nc2ncnc3cc(OCCOC)c(OCCOC)cc23)c1 [Erlotinib] (tested concentration range 1-10000 nM)
drug sensitivity score: 4.8
//
molecule: C[C@@H]1CN(CC(=O)Nc2ccc3c(c2)Cc2cccc(-c4cc(=O)cc(N5CCOCC5)o4)c2S3)C[C@H](C)O1 (tested concentration range 2.5-25000 nM)
drug sensitivity score: 0
//
molecule: Nc1nc2[nH]cc(CCc3ccc(C(=O)N[C@@H](CCC(=O)O)C(=O)O)cc3)c2c(=O)[nH]1 [Pemetrexed] (tested concentration range 1-10000 nM)
drug sensitivity score: 0
//
molecule: NC(=S)N/N=C/c1ncccc1N [Triapine] (tested concentration range 1-10000 nM)
drug sensitivity score: 1.3

Input line: Please tell me: drug sensitivity score of CN1C(=O)N[C@H](Cc2c[nH]c3c(Cl)cccc23)C1=O [Necrostatin 2] (tested concentration range 1-10000 nM) , system CAF#5?
Output line: 0

###

Item-by-item account of drug sensitivity score
# System: CAF#7 (primary prostate cancer-associated fibroblasts of myCAF-like type)
# test-name: drug sensitivity score (DSS2, normalised partial AUC of dose-response, 72 h CellTiter-Glo viability) (DSS (dimensionless)); higher = more sensitive (stronger growth inhibition / cytotoxicity); extreme values may be limits of the assay
Please reply with the value in numeric form only.

molecule: CCc1nc(C(N)=O)c(Nc2ccc(N3CCC(N4CCN(C)CC4)CC3)c(OC)c2)nc1NC1CCOCC1 [Gilteritinib] (tested concentration range 0.1-1000 nM)
drug sensitivity score: 0

molecule: CNC(=O)c1ccc(N2C(=S)N(c3ccc(C#N)c(C(F)(F)F)c3)C(=O)C2(C)C)cc1F [Enzalutamide] (tested concentration range 1-10000 nM)
drug sensitivity score: 0

Proceed to the following item.
Input line: Quick one: drug sensitivity score of C[C@]12C=CC(=O)C=C1CC[C@@H]1[C@@H]2[C@@H](O)C[C@@]2(C)[C@H]1CC[C@]2(O)C(=O)CO [Prednisolone] (tested concentration range 1-10000 nM) ?
Output line: 0

###

# Tested on: CAF#5
# test-name: drug sensitivity score (DSS2, normalised partial AUC of dose-response, 72 h CellTiter-Glo viability) (DSS (dimensionless)); higher = more sensitive (stronger growth inhibition / cytotoxicity); extreme values may be limits of the assay
Item-by-item account of drug sensitivity score
Please reply with the value in numeric form only.

// worked examples, drug sensitivity score included
molecule: COc1cc(Nc2ncc3c(n2)-c2ccc(Cl)cc2C(c2c(F)cccc2OC)=NC3)ccc1C(=O)O [Alisertib] (tested concentration range 1-10000 nM)
recorded-value: 6

molecule: CCCN(CCC)C(=O)C1=Cc2ccc(-c3ccc(C(=O)N4CCCC4)cc3)cc2N=C(N)C1 [Motolimod] (tested concentration range 1-10000 nM)
recorded-value: 0

molecule: CC(=O)N(O)CCCCCNC(=O)CCC(=O)N(O)CCCCCNC(=O)CCC(=O)N(O)CCCCCN [Deferoxamine] (tested concentration range 1-10000 nM)
recorded-value: 2.4

molecule: Cc1[nH]c2ccccc2c1CCNCc1ccc(/C=C/C(=O)NO)cc1 [Panobinostat] (tested concentration range 0.1-1000 nM)
recorded-value: 10.4

Input line: Quick one: drug sensitivity score of CCc1cc2c(cc1N1CCC(N3CCOCC3)CC1)C(C)(C)c1[nH]c3cc(C#N)ccc3c1C2=O [Alectinib] (tested concentration range 0.1-1000 nM) ?
Output line: 0.3

Input line: Quick one: drug sensitivity score of CN1CC[C@@H](NC(=O)Nc2ccc(C#N)cc2)C[C@@H]1c1nc2ccccc2[nH]1 [Glasdegib] (tested concentration range 0.1-1000 nM) ?
Output line: 0
